Origin of values: paper PMC4336329

target: human ether-à-go-go-related gene (hERG) potassium channel (human, UniProt Q12809); assay: primary screen, population patch clamp on CHO cells stably expressing hERG; higher = less effect of the substance;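 also: peak tail current of the secondary pulse compared with the same well before compound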
Sequence (Q12809 whole entry, looked up): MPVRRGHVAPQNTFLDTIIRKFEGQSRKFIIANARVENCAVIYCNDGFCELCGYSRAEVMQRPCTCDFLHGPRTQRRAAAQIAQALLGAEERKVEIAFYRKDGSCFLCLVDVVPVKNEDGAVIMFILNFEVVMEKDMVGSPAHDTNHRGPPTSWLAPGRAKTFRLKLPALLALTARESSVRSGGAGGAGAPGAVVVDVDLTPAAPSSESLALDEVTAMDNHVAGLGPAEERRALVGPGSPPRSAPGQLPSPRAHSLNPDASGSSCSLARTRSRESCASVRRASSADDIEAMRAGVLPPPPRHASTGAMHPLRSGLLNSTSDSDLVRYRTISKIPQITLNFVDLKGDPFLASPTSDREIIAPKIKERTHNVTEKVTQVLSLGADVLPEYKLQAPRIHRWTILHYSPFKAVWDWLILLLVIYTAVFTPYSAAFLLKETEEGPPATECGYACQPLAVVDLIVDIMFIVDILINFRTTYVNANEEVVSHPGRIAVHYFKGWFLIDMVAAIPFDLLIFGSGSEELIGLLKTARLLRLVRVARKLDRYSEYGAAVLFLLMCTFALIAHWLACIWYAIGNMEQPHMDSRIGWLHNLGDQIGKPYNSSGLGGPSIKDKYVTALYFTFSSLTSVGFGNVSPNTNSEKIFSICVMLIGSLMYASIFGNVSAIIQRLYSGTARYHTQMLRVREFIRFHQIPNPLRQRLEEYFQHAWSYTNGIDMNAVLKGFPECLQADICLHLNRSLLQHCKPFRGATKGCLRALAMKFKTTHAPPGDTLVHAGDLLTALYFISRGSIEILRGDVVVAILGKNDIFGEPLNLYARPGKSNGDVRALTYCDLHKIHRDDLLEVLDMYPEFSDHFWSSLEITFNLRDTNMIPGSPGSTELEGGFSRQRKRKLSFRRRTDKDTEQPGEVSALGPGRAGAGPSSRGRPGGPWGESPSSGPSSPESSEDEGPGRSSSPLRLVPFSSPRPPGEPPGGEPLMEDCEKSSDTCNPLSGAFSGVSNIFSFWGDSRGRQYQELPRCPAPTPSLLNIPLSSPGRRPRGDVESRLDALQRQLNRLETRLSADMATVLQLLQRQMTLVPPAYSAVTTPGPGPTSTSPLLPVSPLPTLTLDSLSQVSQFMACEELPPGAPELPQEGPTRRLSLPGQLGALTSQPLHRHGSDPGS
Screen size: about 310,000 compounds; about 14,000 (4.5%) showed an effect of 50% or more. Effects have a minus sign here. Many of the other results were omitted from the sample, so strong results are more common in it than they were.
Property label: hERG current change (%, negative = inhibition) at 10uM (%)
Numeric answer only, unit % assumed.

Sample Cc1ccc(NC(=O)CNC(=O)c2ccco2)cc1Cl ; hERG current change (%, negative = inhibition) at 10uM observed: 17

// hERG current change (%, negative = inhibition) at 10uM value for CCc1nc2c3cnn(-c4cc(Cl)ccc4C)c3ncn2n1 : 5.24

Form: compound = Cc1ccc(-c2cc(C(F)(F)F)n3ncc(C(=O)N4CCCCC4c4cccnc4)c3n2)cc1 (stereo not shown) ; hERG current change (%, negative = inhibition) at 10uM = 4.63

Query CCN1CCN(C(=O)c2cc3nc(-c4ccccc4)cc(C(F)(F)F)n3n2)CC1 yields hERG current change (%, negative = inhibition) at 10uM of -22

So for CN1CCN(C(=O)c2cc3nc(-c4ccccc4)cc(-c4ccccc4)n3n2)CC1 , the logged hERG current change (%, negative = inhibition) at 10uM turned out to be -38.3

Memo: O=C1Nc2ccccc2S/C1=C/Nc1cccc(Cl)c1 , reported hERG current change (%, negative = inhibition) at 10uM: -3.01

// recorded hERG current change (%, negative = inhibition) at 10uM for O=C(O)c1cc(S(=O)(=O)NCc2ccco2)c(Cl)cc1Cl : 14.9

The measured hERG current change (%, negative = inhibition) at 10uM associated with COc1ccc(C(=O)c2c3ccc([N+](=O)[O-])cc3[n+]([O-])n2CCCC(N)=O)cc1 reads -34.6

Recorded hERG current change (%, negative = inhibition) at 10uM (compound Cc1cc(=O)oc2cc(OCC(=O)Nc3ccc(CN4CCOCC4)cc3)ccc12 ): 3.15

# compound Cc1csc(NC(=O)c2ccc(COc3ccccc3)o2)n1 ; its hERG current change (%, negative = inhibition) at 10uM = -17.7

get_value(item= COc1cc(C(=O)NC(C)c2cnn(-c3ccccc3C)c2C)cc(OC)c1OC (stereo not shown) , readout=hERG current change (%, negative = inhibition) at 10uM) returns -51

Sample COc1ccc(N(C(=O)c2snc(C(N)=O)c2N)C(C(=O)NC2CCCC2)c2cc(OC)ccc2OC)c(OC)c1 (stereo not shown) ; hERG current change (%, negative = inhibition) at 10uM observed: 20.9

get_value(item= Cc1ccc2sc(NNC(=O)c3cc(-c4cccs4)nc4ccccc34)nc2c1C , readout=hERG current change (%, negative = inhibition) at 10uM) returns 16.3

// recorded hERG current change (%, negative = inhibition) at 10uM for CCN(CC(=O)NCc1ccc(F)cc1)C(=O)c1ccc2c(c1)OCO2 : -5.66

Reported hERG current change (%, negative = inhibition) at 10uM for COc1cc(OC)cc(C(=O)NC(C)c2cnn(-c3ccccc3C)c2C)c1 (stereo not shown) was -1.48

Record COc1cccc(-c2cc(C(F)(F)F)n3nc(C(=O)N4CCCCC4c4cccnc4)cc3n2)c1 (stereo not shown) . Reported hERG current change (%, negative = inhibition) at 10uM: -23.1

Per the records, this compound ( CCN(CC)C(=O)Oc1ccc(Br)cc1C(=O)Nc1ccc(F)c(Cl)c1 ) has hERG current change (%, negative = inhibition) at 10uM equal to 2.76

Memo: CCOC(=O)C1CCN(S(=O)(=O)c2c(C)noc2C)CC1 , reported hERG current change (%, negative = inhibition) at 10uM: -37.9

The reported hERG current change (%, negative = inhibition) at 10uM of the compound COc1ccc2[nH]c(=O)c(CN(c3ccccc3)S(=O)(=O)c3ccccc3)cc2c1 was 11.2
